Molecular target: UniProt:Q08345
Experiment: Evaluation of DDR1 kinase inhibition in DDR1-expressing U2OS cells (type I collagen stimulation, PathHunter detection)
Format: cell-based
Parameters: host or cells: U2OS
Conditions: type I collagen 50 µg/mL stimulation, duplicate, read-out: DDR-1 IC50
Sequence (Q08345 19-913): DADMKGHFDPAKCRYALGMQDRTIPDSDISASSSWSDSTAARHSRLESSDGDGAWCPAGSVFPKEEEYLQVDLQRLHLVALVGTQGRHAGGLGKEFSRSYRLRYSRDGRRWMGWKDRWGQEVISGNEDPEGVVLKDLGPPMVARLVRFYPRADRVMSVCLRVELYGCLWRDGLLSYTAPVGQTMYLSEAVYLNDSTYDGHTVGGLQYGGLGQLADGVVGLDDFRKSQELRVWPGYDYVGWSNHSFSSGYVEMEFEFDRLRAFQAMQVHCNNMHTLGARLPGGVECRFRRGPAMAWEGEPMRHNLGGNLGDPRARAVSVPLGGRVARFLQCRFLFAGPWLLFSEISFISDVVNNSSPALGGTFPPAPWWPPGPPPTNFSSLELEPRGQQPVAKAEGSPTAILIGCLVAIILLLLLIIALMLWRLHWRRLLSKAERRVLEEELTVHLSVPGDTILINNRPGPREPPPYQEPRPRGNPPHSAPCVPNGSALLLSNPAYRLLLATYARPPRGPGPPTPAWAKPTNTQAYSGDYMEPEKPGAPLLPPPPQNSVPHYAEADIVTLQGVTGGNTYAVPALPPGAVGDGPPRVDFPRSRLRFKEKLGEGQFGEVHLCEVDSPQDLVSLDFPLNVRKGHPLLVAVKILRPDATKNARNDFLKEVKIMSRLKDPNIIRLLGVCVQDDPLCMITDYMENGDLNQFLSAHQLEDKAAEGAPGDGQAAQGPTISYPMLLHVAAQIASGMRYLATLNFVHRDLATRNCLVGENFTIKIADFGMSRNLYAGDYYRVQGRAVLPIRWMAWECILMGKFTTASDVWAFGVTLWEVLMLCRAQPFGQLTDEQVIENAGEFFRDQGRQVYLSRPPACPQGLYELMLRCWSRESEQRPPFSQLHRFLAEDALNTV
Structures can show the parent of a compound that is named as a salt.
So I've got a bunch of molecules here, and I need their IC50 values.
Report only the number, with the unit nM understood.

Entry Nc1cc(C(=O)N2CC(c3nn(CC(=O)N4CCC[C@H]4C(F)(F)F)c4cncc(F)c34)C2)ccn1 [Compound E-54, hydrochloride] , IC50 reported as 180

Lab book: IC50 of O=C(Cn1nc(C2CN(C(=O)c3ccnc(NC4CC4)c3)C2)c2c(F)cc(F)cc21)NCC(F)(F)F [Compound E-30, hydrochloride] noted as 74

Input Nc1ncc(C(=O)N2CC(c3nn(CC(=O)N4CCC[C@H]4C(F)(F)F)c4cc(F)cc(F)c34)C2)o1 . Output IC50: 370

Per the records, this molecule ( Nc1cc(C(=O)N2CCC(c3nn(CC(=O)N4CCC[C@H]4C(F)(F)F)c4cccc(F)c34)CC2)ccn1 ) has IC50 equal to 61

The recorded IC50 for Nc1cc(C(=O)N2CC(c3nn(CC(=O)N4CCO[C@@H](C(F)(F)F)C4)c4cccc(F)c34)C2)ccn1 [Compound E-95, hydrochloride] is 480

The reported IC50 of the molecule Cc1nc(N)sc1C(=O)N1CC(c2nn(CC(=O)N3CCC[C@H]3C(F)(F)F)c3ccccc23)C1 was 150

The molecule listed as CN(CC(F)(F)F)C(=O)Cn1nc(C2CN(C(=O)c3ccnc(N)c3)C2)c2ccccc21 has a reported IC50 of 140

###

Target: DDR1 kinase (Homo sapiens)
Assay: Evaluation of DDR1 kinase inhibition (LANCE Ultra TR-FRET kinase assay)
Type: biochemical
Design: purchased Carna Biosciences 08-113
Details: DDR1 protein 0.5 nM, LANCE Ultra ULight-poly GAT substrate, 2 hours at room temperature, duplicate; read-out: DDR-1 IC50
Sequence (Q08345 19-876 isoform Q08345-2 limits assumed): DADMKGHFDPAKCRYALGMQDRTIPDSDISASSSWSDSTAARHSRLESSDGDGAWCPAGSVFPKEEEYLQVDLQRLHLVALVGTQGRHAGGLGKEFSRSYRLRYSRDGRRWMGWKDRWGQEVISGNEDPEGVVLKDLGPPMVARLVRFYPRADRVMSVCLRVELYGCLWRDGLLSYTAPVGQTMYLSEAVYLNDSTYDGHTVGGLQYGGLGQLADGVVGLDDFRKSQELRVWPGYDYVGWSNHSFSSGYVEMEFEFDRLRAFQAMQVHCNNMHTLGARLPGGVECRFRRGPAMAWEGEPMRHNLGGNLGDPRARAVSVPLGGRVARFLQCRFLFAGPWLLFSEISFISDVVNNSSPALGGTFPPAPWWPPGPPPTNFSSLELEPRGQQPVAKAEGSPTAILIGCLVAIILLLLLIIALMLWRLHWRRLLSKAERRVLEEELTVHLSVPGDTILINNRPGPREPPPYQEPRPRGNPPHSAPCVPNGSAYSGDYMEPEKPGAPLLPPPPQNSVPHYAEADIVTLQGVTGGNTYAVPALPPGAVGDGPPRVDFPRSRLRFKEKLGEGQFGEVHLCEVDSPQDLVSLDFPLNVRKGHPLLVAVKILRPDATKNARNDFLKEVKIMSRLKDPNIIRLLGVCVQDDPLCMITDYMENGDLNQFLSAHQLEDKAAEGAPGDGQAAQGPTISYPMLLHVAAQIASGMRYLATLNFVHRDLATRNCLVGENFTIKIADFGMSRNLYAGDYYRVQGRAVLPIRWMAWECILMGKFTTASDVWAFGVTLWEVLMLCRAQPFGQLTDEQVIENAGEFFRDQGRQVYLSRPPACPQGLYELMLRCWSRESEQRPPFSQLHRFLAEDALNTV
Provide the recorded pIC50 for the entries that follow.
The read-out pIC50 is expressed as -log10 of concentration in moles per litre.

Recorded result, Nc1cc(C(=O)N2CC(c3nn(CC(=O)N4CCC[C@H]4COC(F)(F)F)c4cc(F)cc(F)c34)C2)ccn1 [Compound E-56] , pIC50: 9.10

// sample Nc1cc(C(=O)N2CC(c3nn(CC(=O)NC4CCC(F)(F)CC4)c4ccccc34)C2)ccn1 [Compound E-235] , its pIC50 was 7.23

Field pIC50 (entry Nc1cc(C(=O)N2CC(c3nn(CC(=O)N4CCOC[C@H]4C(F)(F)F)c4cc(F)cc(F)c34)C2)ccn1 [Compound E-123] ) reads 8.06

So for COc1ccc2c(c1)c(C1CN(C(=O)c3cc(N)ncc3F)C1)nn2CC(=O)N1CCC[C@H]1C(F)(F)F [Compound E-291] , the logged pIC50 turned out to be 8.59

###

Target: DDR1 kinase (Homo sapiens, UniProt Q08345)
Assay: Evaluation of DDR1 kinase inhibition in DDR1-expressing U2OS cells (type I collagen stimulation, PathHunter detection)
Type: cell-based
Set-up: host or cells: U2OS
Settings: type I collagen 50 µg/mL stimulation, duplicate, read-out: DDR-1 IC50
Structures can show the parent of a compound that is named as a salt.
Readout Kind: IC50 (nM)
# unit: nM | format: bare number

Recorded result, Nc1cc(C(=O)N2CC(c3nn(Cc4cccc(C(F)(F)F)c4)c4cccc(F)c34)C2)ccn1 [Compound E-113, hydrochloride] , IC50: 470

The compound listed as O=C(Cn1nc(C2CN(C(=O)c3ccnc(NC4CC4)c3)C2)c2c(Cl)c(F)ccc21)NCC(F)(F)F [Compound E-1, hydrochloride] shows IC50 equal to 78

# IC50 (compound: CNc1cc(C(=O)N2CC(c3nn(CC(=O)NCC(F)(F)F)c4cccc(Cl)c34)C2)ccn1 ) is 140
